Biological target: PIM1 serine/threonine kinase (Homo sapiens, UniProt P11309)
Sequence (P11309 whole entry): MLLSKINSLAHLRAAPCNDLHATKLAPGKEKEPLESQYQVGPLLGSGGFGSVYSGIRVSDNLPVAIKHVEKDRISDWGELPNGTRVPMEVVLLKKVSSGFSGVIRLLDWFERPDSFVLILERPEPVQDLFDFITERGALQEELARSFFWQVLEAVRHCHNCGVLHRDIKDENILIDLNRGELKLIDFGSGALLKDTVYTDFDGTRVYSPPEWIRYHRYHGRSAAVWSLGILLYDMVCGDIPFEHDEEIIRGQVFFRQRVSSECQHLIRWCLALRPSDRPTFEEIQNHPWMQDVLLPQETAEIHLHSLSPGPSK
Test: PIM1 serine/threonine kinase inhibitory effect
Details: PIM1 serine/threonine kinase activity; ATP 40 μM; 30° C., 30 minutes
pIC50: −log10 of the molar value. Counter-ions that a name gives are not always drawn.
This section presents compounds with their documented pIC50 values.
Property: pIC50

> print(dat)
                                   compound  observed.result
1  O=c1[nH]nc(-c2ccc(C(F)(F)F)c(NC[C@H]3CC[C@H](C(=O)O)CC3)c2)o1             5.74
2  O=c1[nH]nc(-c2ccc(C(F)(F)F)c(N[C@H]3CCC34CCNCC4)c2)o1 [Example 45, hydrochloride]             7.70
3  Cc1c(-c2n[nH]c(=O)o2)cc(Cl)c(Cl)c1N[C@@H](C)C1CCNCC1 [Example 93, hydrochloride]             7.44
4  CC1(C)[C@@H](CNc2cc(-c3n[nH]c(=O)o3)ccc2C(F)(F)F)C[C@H]1N             8.02

====

Target: PIM1 serine/threonine kinase (Homo sapiens)
Assay: PIM1 serine/threonine kinase inhibitory effect
Conditions: PIM1 serine/threonine kinase activity; ATP 40 μM; 30° C., 30 minutes
Description: Each test substance was prepared to 10 mM with dimethylsulfoxide (DMSO), and further diluted with DMSO so as to have concentrations of 1000, 300, 100, 30, 10, 3, 1, 0.3, 0.1, 0.03, 0.01, and 0.001 μM. Moreover, each dilution was further diluted 33.3-fold with an assay buffer to prepare a test substance solution. The composition of the assay buffer was 50 mM HEPES (pH 7.0), 0.02% NaN3, 0.01% Bovine Serum Albumin, 0.1 mM Orthovanadate, 1 mM Dithiothreitol, and 5 mM MgCl2. […]
pIC50: −log10 of the molar value. Where a name gives a salt, the structure may show the parent alone.
Property: pIC50

> print(dat)
                                    compound  observed.result
 1  C[C@@H]1C[C@H]([C@H](C)Nc2cc(-c3n[nH]c(=O)o3)cc(F)c2OC(F)F)CCN1             8.46
 2  N[C@H]1CC[C@H](Nc2cc(-c3n[nH]c(=O)o3)cc(F)c2C(F)(F)F)CC1 [Example 36, hydrochloride]             8.51
 3  N[C@H]1CC[C@H](CNc2cc(-c3n[nH]c(=O)o3)cc(F)c2C(F)(F)F)CC1 [Example 69, hydrochloride]             8.96
 4  C[C@H](Nc1cc(-c2n[nH]c(=O)o2)ccc1C(F)(F)F)C1CCNCC1 [Example 58, hydrochloride]             8.70
 5  C[C@H](Nc1cc(Cl)cc(-c2n[nH]c(=O)o2)c1)C1CCNCC1 [Example 105, dihydrochloride]             7.92
 6  NCc1cccc(-c2cc(-c3n[nH]c(=O)o3)ccc2C(F)(F)F)c1 [Example 21, hydrochloride]             6.80
 7  CC1CC(CNc2cc(-c3n[nH]c(=O)o3)ccc2C(F)(F)F)CCN1 (stereo not drawn) [Example 143, hydrochloride]             7.85
 8  N[C@H]1CC[C@H](CCc2cc(-c3n[nH]c(=O)o3)ccc2C(F)(F)F)CC1 [Example 27, hydrochloride]             8.39
 9  C[C@H](Nc1cc(-c2n[nH]c(=O)o2)cc(C2CC2)c1Cl)C1CCNCC1             7.44
10  N[C@H]1CC[C@H](CNc2cccc(-c3n[nH]c(=O)o3)c2)CC1 [Example 62, hydrochloride]             6.85
11  C[C@@H]1CNCC[C@@H]1[C@H](C)Nc1cc(-c2n[nH]c(=O)o2)ccc1C(F)(F)F             8.55
12  O=c1[nH]nc(-c2ccc(C(F)(F)F)c(N[C@@H](C3CCNCC3)C(F)(F)F)c2)o1 [Example 147, hydrochloride]             7.64
13  C[C@H](Nc1cc(-c2n[nH]c(=O)o2)ccc1C(F)(F)F)[C@@H]1CC[C@H](N)C1 [Example 200, hydrochloride]             8.07
14  Cc1cc(Cl)c(N[C@@H](C)C2CCNCC2)cc1-c1n[nH]c(=O)o1 [Example 94, hydrochloride]             8.08
15  C[C@H](Nc1cc(-c2n[nH]c(=O)o2)cc(F)c1C(F)(F)F)C1CCNCC1.Cl [Example 75, hydrochloride]             8.85

====

Target: PIM1 serine/threonine kinase (Homo sapiens)
Experiment: PIM1 serine/threonine kinase inhibitory effect
Conditions: PIM1 serine/threonine kinase activity; ATP 40 μM; 30° C., 30 minutes
pIC50: −log10 of the molar value. Counter-ions that a name gives are not always drawn.
Property: pIC50

> print(dat)
                                   compound                       experimental.system  observed.result
1  N[C@H]1CC[C@H](CN2CCCc3ccc(-c4n[nH]c(=O)o4)cc32)CC1 [Example 244]  PIM1 serine/threonine kinase (Homo sapiens)             7.96
2  C[C@H](Nc1cc(-c2n[nH]c(=O)o2)cc(F)c1OC(F)(F)F)[C@H]1C[C@@H](N)C1 [Example 180, hydrochloride]  PIM1 serine/threonine kinase (Homo sapiens)             8.66
3  CC1CN(C(C)C2CCC(N)CC2)c2cc(-c3n[nH]c(=O)o3)cc(F)c2O1 (stereo not shown) [Example 252, hydrochloride]  PIM1 serine/threonine kinase (Homo sapiens)             8.18
4  C[C@H](Nc1cc(-c2n[nH]c(=O)o2)cc(Br)c1Cl)C1CCNCC1 [Example 97, dihydrochloride]  PIM1 serine/threonine kinase (Homo sapiens)             8.92
5  C[C@H](Nc1cc(-c2n[nH]c(=O)o2)cc(F)c1C(F)(F)F)C1(F)CCNCC1 [Example 159, hydrochloride]  PIM1 serine/threonine kinase (Homo sapiens)             8.55
6  N[C@H]1CC[C@H](CNc2cc(-c3n[nH]c(=O)o3)cc(F)c2Cl)CC1 [Example 86, hydrochloride]  PIM1 serine/threonine kinase (Homo sapiens)             9.22
7  CCC1(CNc2cc(-c3n[nH]c(=O)o3)ccc2C(F)(F)F)CCNCC1 [Example 122, hydrochloride]  PIM1 serine/threonine kinase (Homo sapiens)             8.19

====

Target: PIM1 transgenic cells (Ba/F3) (Homo sapiens)
Experiment: Proliferation inhibitory effect on PIM1 transgenic cells
Format: cell-based, mouse
Settings: proliferation inhibition, 72 hours, Cell Counting Kit-8, read-out: PIM1 IC50
Where a name gives a salt, the structure may show the parent alone.
This section presents compounds with their documented GI50 values.
Property: GI50 (µM)

> print(dat)
                                    compound  property  endpoint.unit  observed.result
 1  N[C@H]1CC[C@H](CNc2cc(-c3n[nH]c(=O)o3)cc(F)c2C(F)(F)F)CC1 [Example 69, hydrochloride]      GI50             µM            0.037
 2  C[C@H](Nc1cc(-c2n[nH]c(=O)o2)cc2[nH]ncc12)C1CCNCC1 [Example 100, dihydrochloride]      GI50             µM             0.26
 3  COc1c(Cl)cc(-c2n[nH]c(=O)o2)cc1N[C@@H](C)C1CCNCC1 [Example 104, hydrochloride]      GI50             µM             0.11
 4  C[C@@H]1CNCC[C@@H]1[C@H](C)Nc1cc(-c2n[nH]c(=O)o2)cc(F)c1OC(F)(F)F      GI50             µM            0.011
 5  N[C@H]1CC[C@H](Nc2cc(-c3n[nH]c(=O)o3)ccc2C(F)(F)F)CC1 [Example 34, hydrochloride]      GI50             µM             0.91
 6  N[C@H]1CO[C@H](C2CC2c2cc(-c3n[nH]c(=O)o3)ccc2C(F)(F)F)OC1 (stereo partly shown) [Example 161, hydrochloride]      GI50             µM                1
 7  O=c1[nH]nc(-c2ccc(C(F)(F)F)c(NC[C@@H]3CCNC[C@H]3F)c2)o1 [Example 127, hydrochloride]      GI50             µM             0.44
 8  C[C@@H]1CNCC[C@@H]1[C@H](C)Nc1cc(-c2n[nH]c(=O)o2)ccc1C(F)(F)F      GI50             µM            0.026
 9  CCN[C@H]1C[C@@H]([C@H](C)Nc2cc(-c3n[nH]c(=O)o3)ccc2C(F)(F)F)C1 [Example 195, hydrochloride]      GI50             µM             0.14
10  C[C@H](Nc1nc(-c2n[nH]c(=O)o2)ccc1C(F)(F)F)C1CCNCC1 [Example 114, hydrochloride hydrochloride]      GI50             µM              0.3
11  CN[C@H]1CC[C@H](CNc2cc(-c3n[nH]c(=O)o3)ccc2C(F)(F)F)CC1 [Example 131, hydrochloride]      GI50             µM            0.071
12  C[C@H](Nc1cc(-c2n[nH]c(=O)o2)cc(F)c1OC(F)(F)F)[C@H]1C[C@@H](N)C1 [Example 180, hydrochloride]      GI50             µM             0.03
13  O=c1[nH]nc(-c2ccc(C(F)(F)F)c(N[C@@H]3CCC34CCNCC4)c2)o1 [Example 46, hydrochloride]      GI50             µM              2.6
14  C[C@H](Nc1cc(-c2n[nH]c(=O)o2)ccc1Cl)[C@H]1CC[C@H](N)CC1 [Example 148, hydrochloride]      GI50             µM            0.045
15  C[C@H](Nc1cc(-c2n[nH]c(=O)o2)cc(F)c1OC(F)(F)F)C1(C)CCNCC1      GI50             µM             0.05
16  CC(Nc1cc(-c2n[nH]c(=O)o2)ccc1C(F)(F)F)[C@H]1CC[C@H](N)CC1 (stereo partly shown) [Example 63, hydrochloride]      GI50             µM            0.028
17  N[C@H]1CC[C@H](Nc2cc(-c3n[nH]c(=O)o3)ccc2Br)CC1 [Example 35, hydrochloride]      GI50             µM             0.51
18  N[C@H]1CC[C@H](COc2cc(-c3n[nH]c(=O)o3)ccc2Cl)CC1      GI50             µM            0.079
19  C[C@H](Nc1cc(-c2n[nH]c(=O)o2)c(F)cc1Cl)C1CCNCC1 [Example 95, hydrochloride]      GI50             µM             0.59
20  CC(C)(CN)C1CCN(c2cc(-c3n[nH]c(=O)o3)ccc2C(F)(F)F)CC1      GI50             µM             0.54
21  C[C@H](Nc1cc(-c2n[nH]c(=O)o2)cc(F)c1OC(F)(F)F)[C@H]1CCNC[C@H]1F      GI50             µM           0.0071
22  N[C@H]1CC[C@H](CCNc2cc(-c3n[nH]c(=O)o3)ccc2C(F)(F)F)CC1 [Example 117, hydrochloride]      GI50             µM              1.3

meta.source: patent US20220024921A1
